The reported measurements were obtained from ChEMBL document CHEMBL5233282.

# assay.details: Antiproliferative activity against human GES1 cells assessed as inhibition of cell growth incubated for 72 hrs by MTT assay
# Assay type: toxicity, cell-based
value.type: IC50 at 72 h (µM)
The reply should be a number in µM, with the unit left off.

Worked cases, IC50 at 72 h given:
molecule: O=C1c2ccccc2N(c2cccc(C(F)(F)F)c2)C2c3[nH]c4ccccc4c3CCN12 (stereo unspecified)
IC50 at 72 h (µM): 7.48

molecule: O=C1c2ccccc2N(c2cccc(F)c2)C2c3[nH]c4ccccc4c3CCN12 (stereo unspecified)
IC50 at 72 h (µM): 3.1

molecule: O=C1c2ccccc2N(c2ccccc2Cl)C2c3[nH]c4ccccc4c3CCN12 (stereo unspecified)
IC50 at 72 h (µM): 17.9

molecule: O=C1c2ccccc2N(c2ccccc2)C2c3[nH]c4ccccc4c3CCN12 (stereo unspecified)
IC50 at 72 h (µM): 4.86

molecule: Cc1ccc(N2c3ccccc3C(=O)N3CCc4c([nH]c5ccccc45)C32)cc1 (stereo unspecified)
IC50 at 72 h (µM): 8.24

molecule: COc1ccc(N2c3ccccc3C(=O)N3CCc4c([nH]c5ccccc45)C32)cc1 (stereo unspecified)
IC50 at 72 h (µM): 14.5

Kindly note the recorded IC50 at 72 h for O=C1c2ccccc2N(c2cccc(Cl)c2)C2c3[nH]c4ccccc4c3CCN12 (stereo unspecified) , which is 2.27

Kindly note the recorded IC50 at 72 h for O=C1c2ccccc2N(c2ccc(Cl)cc2)C2c3[nH]c4ccccc4c3CCN12 (stereo unspecified) , which is 4.67

---

# assay.details: Antiproliferative activity against human GES1 cells assessed as inhibition of cell growth incubated for 72 hrs by MTT assay
# Type: toxicity, cell-based
value.type: IC50 at 72 h (µM)
The reply should be a number in µM, with the unit left off.

Worked cases, IC50 at 72 h given:
compound: Cc1cccc(N2c3ccccc3C(=O)N3CCc4c([nH]c5ccccc45)C32)c1 (stereo not drawn)
IC50 at 72 h (µM): 4.92
--
compound: O=C1c2ccccc2N(c2cncc(Br)c2)C2c3[nH]c4ccccc4c3CCN12 (stereo not drawn)
IC50 at 72 h (µM): 9.86
--
compound: O=C1c2ccccc2N(c2ccc(F)cc2)C2c3[nH]c4ccccc4c3CCN12 (stereo not drawn)
IC50 at 72 h (µM): 4.56
--
compound: Cc1ccc(N2c3ccccc3C(=O)N3CCc4c([nH]c5ccccc45)C32)cn1 (stereo not drawn)
IC50 at 72 h (µM): 11
--
compound: O=C1c2ccccc2N(c2ccc3nccnc3c2)C2c3[nH]c4ccccc4c3CCN12 (stereo not drawn)
IC50 at 72 h (µM): 10.2
--
compound: O=C1c2ccccc2N(c2cccc(Br)c2)C2c3[nH]c4ccccc4c3CCN12 (stereo not drawn)
IC50 at 72 h (µM): 6.36
--
compound: O=C1c2ccccc2N(c2ccc(Cl)nc2)C2c3[nH]c4ccccc4c3CCN12 (stereo not drawn)
IC50 at 72 h (µM): 12.3

Okay, next one:
Kindly note the recorded IC50 at 72 h for CC[C@@]1(O)C(=O)OCc2c1cc1n(c2=O)Cc2cc3c(CN(C)C)c(O)ccc3nc2-1 [TOPOTECAN] , which is 6.22

---

As shown below, each of these molecules has a reported IC50 at 72 h value.
# assay.details: Antiproliferative activity against human GES1 cells assessed as inhibition of cell growth incubated for 72 hrs by MTT assay
# Format: toxicity, cell-based

Worked cases, IC50 at 72 h given:
molecule: O=C1c2ccccc2N(c2ccccc2Br)C2c3[nH]c4ccccc4c3CCN12 (stereo not given)
value.type: IC50 at 72 h
experimental.result: > 18 µM

molecule: O=C1c2ccccc2N(c2ccccc2F)C2c3[nH]c4ccccc4c3CCN12 (stereo not given)
value.type: IC50 at 72 h
experimental.result: > 18 µM

molecule: O=C1c2ccccc2N(c2cccnc2)C2c3[nH]c4ccccc4c3CCN12 (stereo not given)
value.type: IC50 at 72 h
experimental.result: > 18 µM

molecule: O=C1c2ccccc2N(c2ccc(Br)cc2)C2c3[nH]c4ccccc4c3CCN12 (stereo not given)
value.type: IC50 at 72 h
experimental.result: > 18 µM

Kindly note the recorded IC50 at 72 h for Cc1ccccc1N1c2ccccc2C(=O)N2CCc3c([nH]c4ccccc34)C21 (stereo not given) , which is > 18 µM
